The values you see were collected from patent US5877019A.

- tested system: 2-5A-dependent RNase (Homo sapiens)
- Sequence (Q05823 whole entry): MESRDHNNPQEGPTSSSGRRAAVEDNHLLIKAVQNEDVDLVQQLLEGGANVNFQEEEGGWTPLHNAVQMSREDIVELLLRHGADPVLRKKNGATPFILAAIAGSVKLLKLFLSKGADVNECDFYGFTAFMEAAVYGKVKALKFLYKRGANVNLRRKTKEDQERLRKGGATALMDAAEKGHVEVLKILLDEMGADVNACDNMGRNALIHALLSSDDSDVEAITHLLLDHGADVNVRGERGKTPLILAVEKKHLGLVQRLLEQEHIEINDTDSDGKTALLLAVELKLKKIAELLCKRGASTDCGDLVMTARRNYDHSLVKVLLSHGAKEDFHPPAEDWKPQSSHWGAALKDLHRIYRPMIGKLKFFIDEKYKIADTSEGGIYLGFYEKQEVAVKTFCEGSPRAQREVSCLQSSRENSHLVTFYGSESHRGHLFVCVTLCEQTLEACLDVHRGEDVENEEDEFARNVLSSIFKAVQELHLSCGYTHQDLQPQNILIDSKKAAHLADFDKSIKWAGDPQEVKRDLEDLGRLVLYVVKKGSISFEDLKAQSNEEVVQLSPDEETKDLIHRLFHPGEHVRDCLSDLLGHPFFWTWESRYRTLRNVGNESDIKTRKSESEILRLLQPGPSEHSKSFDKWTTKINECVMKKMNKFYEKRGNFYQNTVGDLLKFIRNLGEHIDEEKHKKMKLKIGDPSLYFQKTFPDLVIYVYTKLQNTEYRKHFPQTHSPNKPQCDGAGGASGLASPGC
- test name: Divalent cation and ATP effects on 2-5A binding activity of dialyzed enzyme
- conditions used: EDTA/EGTA buffer
quantity: effect on 2-5A-binding activity

compound_structure=[Mg+2] quantity="effect on 2-5A-binding activity" measured_value="greatly stimulated"
compound_structure=[Zn+2] quantity="effect on 2-5A-binding activity" measured_value=enhanced
compound_structure=[Mn+2] quantity="effect on 2-5A-binding activity" measured_value="greatly stimulated"
compound_structure=[Ca+2] quantity="effect on 2-5A-binding activity" measured_value=enhanced
